Test system: HSkMC (human skeletal muscle cells)
Test name: cytotoxicity call (relative viability < 0.9)
Measurement context: 10 µM
Out of some 39,000 compounds screened, about 1,500 (3.8%) were called active. Only a selection was taken, and actives are over-represented in it overall.
The categories you may choose from are Y (active), N (inactive)

stdin: What outcome does the record of this test show for COc1ccc(CN(C)C[C@@H]2OCCCC[C@H](C)Oc3ccc(NC(=O)Nc4cccc5ccccc45)cc3C(=O)N([C@H](C)CO)C[C@H]2C)cc1 ?
stdout: Y

stdin: What outcome does the record of this test show for COc1ccc(CN(C)C[C@H]2OCCCC[C@@H](C)Oc3ccc(NC(=O)Nc4cccc5ccccc45)cc3C(=O)N([C@H](C)CO)C[C@H]2C)cc1 ?
stdout: N

stdin: What outcome does the record of this test show for CCCN1C[C@H](C(=O)O)CCC1=O ?
stdout: N

stdin: What outcome does the record of this test show for C=CC[C@H](CC(=O)N(CCO)Cc1ccccc1)C(=O)NC[C@@H](OC(=O)[C@@H](CC=C)Cc1ccc(F)cc1)c1ccccc1 ?
stdout: N

stdin: What outcome does the record of this test show for C=CC[C@@H](CC(=O)N(CCO)Cc1ccccc1)C(=O)NC[C@@H](OC(=O)[C@@H](CC=C)Cc1ccc(F)cc1)c1ccccc1 ?
stdout: N

stdin: What outcome does the record of this test show for C[C@@H]1CN([C@@H](C)CO)C(=O)c2cccc(N(C)C)c2O[C@H]1CN(C)S(=O)(=O)c1ccc(Cl)cc1 ?
stdout: N

stdin: What outcome does the record of this test show for COc1ccc(CN(C)C[C@H]2OCCCC[C@H](C)Oc3ccc(NC(=O)Nc4cccc5ccccc45)cc3C(=O)N([C@@H](C)CO)C[C@@H]2C)cc1 ?
stdout: N

stdin: What outcome does the record of this test show for C=CC[C@H](CC(=O)N(CCO)Cc1ccccc1)C(=O)NC[C@H](OC(=O)[C@@H](CC=C)Cc1ccc(F)cc1)c1ccccc1 ?
stdout: Y

stdin: What outcome does the record of this test show for COC(=O)CSc1nc(=O)c(C)n[nH]1 ?
stdout: N

stdin: What outcome does the record of this test show for Cc1ccc(S(=O)(=O)Nc2ccc3c(c2)C(=O)N([C@@H](C)CO)C[C@H](C)[C@H](CN(C)Cc2ccc(C(=O)O)cc2)OCCCC[C@H](C)O3)cc1 ?
stdout: N

stdin: What outcome does the record of this test show for C=C(C)CCn1cccc1C(C)=O ?
stdout: N

stdin: What outcome does the record of this test show for O=C(C[C@@H]1CC[C@H]2[C@@H](COC[C@H](O)CN2S(=O)(=O)c2ccc(F)cc2)O1)N[C@H]1CCN(Cc2ccccc2)C1 ?
stdout: N

stdin: What outcome does the record of this test show for CCC(=C/[C@H](C)C/C=C/C(C)=C/[C@@H](C)C(=O)[C@@H](C)[C@H](O)[C@@H](C)C/C(C)=C/C(=O)O)/C=C/[C@@H]1OC(=O)C=C[C@@H]1C ?
stdout: Y

stdin: What outcome does the record of this test show for C=CC[C@@H](CC(=O)N(CCO)Cc1ccccc1)C(=O)NC[C@H](OC(=O)[C@@H](CC=C)Cc1ccc(F)cc1)c1ccccc1 ?
stdout: Y

stdin: What outcome does the record of this test show for COc1ccc(CN(C)C[C@@H]2OCCCC[C@@H](C)Oc3ccc(NC(=O)Nc4cccc5ccccc45)cc3C(=O)N([C@@H](C)CO)C[C@H]2C)cc1 ?
stdout: Y
